# Test system: Enterococcus
# ASSAY_COMMENT: Ratio of kcat to Km of Enterococcus APH(3')-3a
OBSERVED_PROPERTY: kcat/Km (×10⁴ /M/s)
// units = ×10⁴ /M/s; emit number, no label

Here's what some known entries look like.
NCC[C@H](O)C(=O)N[C@@H]1C[C@H](N)[C@@H](O[C@H]2O[C@H](CN)[C@@H](O)[C@H](O)[C@H]2O)[C@H](O)[C@H]1O[C@H]1O[C@H](CO)[C@@H](O)[C@H](N)[C@H]1O: 2.4
CNCc1cn(C[C@H]2O[C@@H](O[C@@H]3[C@@H](O)[C@H](N)C[C@H](N)[C@H]3O[C@H]3O[C@H](CN)[C@@H](O)[C@H](O)[C@H]3N)[C@H](O)[C@@H]2O[C@H]2O[C@@H](CN)[C@@H](O)[C@H](O)[C@H]2N)nn1: 0.36
CCCCCCC(=O)NC[C@H]1O[C@@H](O[C@@H]2[C@@H](O)[C@H](N)C[C@H](N)[C@H]2O[C@H]2O[C@H](CN)[C@@H](O)[C@H](O)[C@H]2N)[C@H](O)[C@@H]1O[C@H]1O[C@@H](CN)[C@@H](O)[C@H](O)[C@H]1N: 1

Tell me the measured kcat/Km of NCC(=O)NC[C@H]1O[C@@H](O[C@@H]2[C@@H](O)[C@H](N)C[C@H](N)[C@H]2O[C@H]2O[C@H](CN)[C@@H](O)[C@H](O)[C@H]2N)[C@H](O)[C@@H]1O[C@H]1O[C@@H](CN)[C@@H](O)[C@H](O)[C@H]1N , please.
0.6

Same question for C[C@H](N)C(=O)NC[C@H]1O[C@@H](O[C@@H]2[C@@H](O)[C@H](N)C[C@H](N)[C@H]2O[C@H]2O[C@H](CN)[C@@H](O)[C@H](O)[C@H]2N)[C@H](O)[C@@H]1O[C@H]1O[C@@H](CN)[C@@H](O)[C@H](O)[C@H]1N please.
0.75

Same question for CC(=O)NCC1CN(Cc2cn(C[C@H]3O[C@@H](O[C@@H]4[C@@H](O)[C@H](N)C[C@H](N)[C@H]4O[C@H]4O[C@H](CN)[C@@H](O)[C@H](O)[C@H]4N)[C@H](O)[C@@H]3O[C@H]3O[C@@H](CN)[C@@H](O)[C@H](O)[C@H]3N)nn2)C(=O)O1 (stereo partly drawn) please.
0.13

Same question for NC[C@@H]1O[C@@H](O[C@H]2[C@H](O)[C@@H](O[C@H]3O[C@H](CO)[C@@H](O)[C@H](N)[C@H]3O)[C@H](N)C[C@@H]2N)[C@@H](O)[C@H](O)[C@H]1O please.
42.4

Same question for NC[C@@H]1O[C@H](O[C@H]2[C@@H](O)[C@H](O[C@@H]3[C@@H](O)[C@H](N)C[C@H](N)[C@H]3O[C@H]3O[C@H](CN)[C@@H](O)[C@H](O)[C@H]3N)O[C@@H]2CNC(=O)c2cc(-c3ccccc3)nc3ccccc23)[C@H](N)[C@@H](O)[C@@H]1O please.
0.048

* * *

# Test system: Escherichia coli
# ASSAY_COMMENT: Antibacterial activity against Escherichia coli TG1 pET28a plasmid encoded for APH(3')-3a after 12 to 18 hrs
# Type: functional
OBSERVED_PROPERTY: MIC (µg/mL)
// units = µg/mL; emit number, no label

NC[C@@H]1O[C@H](O[C@H]2[C@@H](O)[C@H](O[C@@H]3[C@@H](O)[C@H](N)C[C@H](N)[C@H]3O[C@H]3O[C@H](CN)[C@@H](O)[C@H](O)[C@H]3N)O[C@@H]2CNC(=O)CCC(=O)O)[C@H](N)[C@@H](O)[C@@H]1O: 250

Next compound, please.
Tell me the measured MIC of NC[C@@H]1O[C@H](O[C@H]2[C@@H](O)[C@H](O[C@@H]3[C@@H](O)[C@H](N)C[C@H](N)[C@H]3O[C@H]3O[C@H](CN)[C@@H](O)[C@H](O)[C@H]3N)O[C@@H]2Cn2cc(CNC(=O)c3cc(-c4ccccc4)nc4ccccc34)nn2)[C@H](N)[C@@H](O)[C@@H]1O , please.
16
